# Test system: NCIH460 (lung) cells
# Assay name: Anti-cancer screen (MTT), NCIH460
# Assay type: cell-based
# Condition info: Homo sapiens, NCI-H460; NCIH460, 48 hours, MTT; read-out: Cell growth inhibition NCIH460 (Lung) LC50
Task for the reader: assign each of the following compounds its reported LC50.

API: value(readout=LC50, system=NCIH460 (lung) cells) for record COc1ccc(/C(=C\c2ccc(SC)cc2)C(=O)NCCCCCC(=O)NO)cc1
82 µM

Now give it for COc1ccc(/C=C(/C(=O)NCc2ccc(C(=O)Nc3ccccc3N)cc2)c2ccccc2)c(OC)c1 too.
> 100 µM

Now give it for Nc1ccccc1NC(=O)c1ccc(CNC(=O)/C(=C/C2CC2)c2ccc(F)cc2)cc1 too.
82 µM

Now give it for Nc1ccccc1NC(=O)c1ccc(CNC(=O)/C(=C/c2ccc(F)c(F)c2)c2ccc(F)cc2)cc1 too.
52 µM

====

# Tested on: U251 (glioma) cells
# Assay name: Anti-cancer screen (MTT), U251
# Assay type: cell-based
# Condition info: Homo sapiens, U-251; U251, 48 hours, MTT; read-out: Cell growth inhibition U251 (Glioma) TGI
Task for the reader: assign each of the following compounds its reported IC (TGI).
Numeric only. Scale: µM

IC (TGI) for CSc1ccc(/C=C(/C(=O)NCCCCCC(=O)NO)c2ccsc2)cc1 [Compound 90] ?
6.1

Now give it for COc1ccc(/C=C(/C(=O)NCc2ccc(C(=O)Nc3ccccc3N)cc2)c2ccccc2)cc1OC [Compound 31] too.
50

Now give it for O=C(NCc1ccc(C(=O)NO)cc1)/C(=C/c1ccc(F)cc1)c1ccc(C(F)(F)F)cc1 [Compound 50] too.
72

Now give it for CSc1ccc(/C=C(/C(=O)NCc2ccc(C(=O)Nc3ccccc3N)cc2)c2ccc(C)cc2)cc1 [Compound 25] too.
37

Now give it for O=C(CCCCCNC(=O)/C(=C/c1c(F)cc(F)cc1F)c1ccc(F)cc1)NO [Compound 89] too.
6.7

====

# System: NCIH460 (lung) cells
# Assay name: Anti-cancer screen (MTT), NCIH460
# Format: cell-based
# Condition info: Homo sapiens, NCI-H460; NCIH460, 48 hours, MTT; read-out: Cell growth inhibition NCIH460 (Lung) LC50
Assay metric: LC50 (µM)
Numeric only. Scale: µM

LC50 for COc1ccc(/C(=C\c2ccc(F)cc2)C(=O)NCc2ccc(C(=O)NO)cc2)cc1 [Compound 49] ?
89

Now give it for Nc1ccccc1NC(=O)c1ccc(CNC(=O)/C(=C/c2ccncc2)c2ccc(F)cc2)cc1 [Compound 15] too.
95

Now give it for CSc1ccc(/C=C(/C(=O)NCCCCCC(=O)NO)c2ccccc2Cl)cc1 [Compound 95] too.
72

Now give it for COc1ccc(/C=C(/C(=O)NCc2ccc(C(=O)NO)cc2)c2ccc(F)cc2)cc1 [Compound 53] too.
49

Now give it for O=C(CCCCCNC(=O)/C(=C/c1c(F)cc(F)cc1F)c1ccc(F)cc1)NO [Compound 89] too.
45

Now give it for O=C(CCCCCNC(=O)NC(=O)/C(=C/c1ccccc1)c1ccccc1)NO [Compound 101] too.
82

Now give it for Nc1ccccc1NC(=O)c1ccc(CNC(=O)/C(=C/c2ccccc2)c2ccccc2)cc1 [Compound 12] too.
87

Now give it for CSc1ccc(/C=C(/C(=O)NCCCCCC(=O)NO)c2ccsc2)cc1 [Compound 90] too.
30

Now give it for CSc1ccc(/C=C(/C(=O)NCc2ccc(C(=O)Nc3ccccc3N)cc2)c2ccc(C)cc2)cc1 [Compound 25] too.
100

====

# System: U251 (glioma) cells
# Assay name: Anti-cancer screen (MTT), U251
# Assay type: cell-based
# Condition info: Homo sapiens, U-251; U251, 48 hours, MTT; read-out: Cell growth inhibition U251 (Glioma) TGI
Task for the reader: assign each of the following compounds its reported IC (TGI).
Numeric only. Scale: µM

API: value(readout=IC (TGI), system=U251 (glioma) cells) for record CSc1ccc(/C=C(/C(=O)NCc2ccc(C(=O)Nc3ccccc3N)cc2)c2ccc(C(F)(F)F)cc2)cc1
65

Now give it for COc1cc(/C=C(/C(=O)NCc2ccc(C(=O)Nc3ccccc3N)cc2)c2ccc(F)cc2)ccc1F too.
3.5

Now give it for CSc1ccc(/C=C(/C(=O)NCc2ccc(C(=O)NO)cc2)c2cccnc2)cc1 too.
0.4

Now give it for CSc1ccc(/C=C(/C(=O)NCc2ccc(C(=O)Nc3ccccc3N)cc2)c2ccsc2)cc1 too.
70

Now give it for O=C(CCCCCNC(=O)NC(=O)/C(=C/c1ccc(F)c(F)c1)c1ccc(F)cc1)NO too.
62

Now give it for CSc1ccc(/C=C(/C(=O)NCc2ccc(C(=O)Nc3ccccc3N)cc2)c2ccccc2F)cc1 too.
30

Now give it for CSc1ccc(/C=C(/C(=O)NCc2ccc(C(=O)Nc3ccccc3N)cc2)c2cccs2)cc1 too.
4

Now give it for Nc1ccccc1NC(=O)c1ccc(CNC(=O)/C(=C/c2ccc(F)cc2Cl)c2ccccc2)cc1 too.
79

Now give it for O=C(NCc1ccc(C(=O)NO)cc1)/C(=C/c1ccc(F)cc1)c1ccccc1 too.
48

Now give it for COC(=O)c1ccc(/C=C(/C(=O)NCc2ccc(C(=O)Nc3ccccc3N)cc2)c2cccc(Cl)c2)cc1 too.
0.7

Just for reference, patent US8476255B2 is where these values come from.
